target: UniProtKB P19490; assay: Inhibition of rat recombinant GluA1 expressed in Xenopus oocytes assessed as inhibition of glutamate-induced channel current at 100 nM at holding potential of -80 mV by two-electrode voltage clamp technique; assay type: cell-based
Sequence (P19490 whole entry): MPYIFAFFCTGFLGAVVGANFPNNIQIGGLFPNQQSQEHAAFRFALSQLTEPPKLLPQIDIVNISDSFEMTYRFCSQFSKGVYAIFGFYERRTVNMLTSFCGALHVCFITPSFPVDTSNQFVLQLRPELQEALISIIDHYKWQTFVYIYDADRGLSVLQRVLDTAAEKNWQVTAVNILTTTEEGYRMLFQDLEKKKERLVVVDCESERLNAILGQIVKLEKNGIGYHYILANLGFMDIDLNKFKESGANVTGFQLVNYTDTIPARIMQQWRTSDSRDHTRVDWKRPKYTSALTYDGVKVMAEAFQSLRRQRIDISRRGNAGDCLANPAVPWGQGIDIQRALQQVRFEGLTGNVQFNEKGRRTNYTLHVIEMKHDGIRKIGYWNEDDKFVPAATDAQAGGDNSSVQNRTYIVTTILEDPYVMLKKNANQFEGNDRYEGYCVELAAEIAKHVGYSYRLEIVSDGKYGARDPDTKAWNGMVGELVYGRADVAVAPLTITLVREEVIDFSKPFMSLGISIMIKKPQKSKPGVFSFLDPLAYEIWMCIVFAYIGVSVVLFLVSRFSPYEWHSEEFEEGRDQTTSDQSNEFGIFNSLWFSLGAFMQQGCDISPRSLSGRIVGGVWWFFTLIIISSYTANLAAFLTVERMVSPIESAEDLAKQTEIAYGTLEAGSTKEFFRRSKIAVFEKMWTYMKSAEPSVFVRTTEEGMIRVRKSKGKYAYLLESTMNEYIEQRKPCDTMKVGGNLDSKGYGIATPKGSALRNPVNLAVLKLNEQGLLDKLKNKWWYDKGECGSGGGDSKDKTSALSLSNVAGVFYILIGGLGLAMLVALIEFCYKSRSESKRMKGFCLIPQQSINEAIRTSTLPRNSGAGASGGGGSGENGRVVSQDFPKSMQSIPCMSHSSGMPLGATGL
endpoint.label: inhibition

structure: C[N+](C)(CCCC[C@H](N)C(=O)NCCCCCNC(=O)[C@H](CC(N)=O)NC(=O)Cc1c[nH]c2cccc(O)c12)CCCNC(=O)[C@@H](N)CCCNC(=N)N
target.desc: UniProtKB P19490
endpoint.label: inhibition
value: > 40%
--
structure: C[N+](C)(CCCC[C@H](N)C(=O)NCCCCCNC(=O)[C@H](CC(N)=O)NC(=O)Cc1c[nH]c2ccccc12)CCCNC(=O)[C@@H](N)CCCNC(=N)N
target.desc: UniProtKB P19490
endpoint.label: inhibition
value: > 40%
--
structure: CN(CCCC[C@H](N)C(=O)NCCCCCNC(=O)[C@H](CC(N)=O)NC(=O)Cc1c[nH]c2cccc(O)c12)CCCNC(=O)[C@@H](N)CCCNC(=N)N
target.desc: UniProtKB P19490
endpoint.label: inhibition
value: > 40%
--
structure: N=C(N)NCCC[C@H](N)C(=O)NCCCNCCCC[C@H](N)C(=O)NCCCCCNC(=O)[C@H](CC(N)=O)NC(=O)Cc1c[nH]c2cccc(O)c12
target.desc: UniProtKB P19490
endpoint.label: inhibition
value: 84%
--
structure: CN(CCCC[C@H](N)C(=O)NCCCCCNC(=O)[C@H](CC(N)=O)NC(=O)Cc1c[nH]c2ccccc12)CCCNC(=O)[C@@H](N)CCCNC(=N)N
target.desc: UniProtKB P19490
endpoint.label: inhibition
value: > 40%
--
structure: N=C(N)NCCC[C@H](N)C(=O)NCCCNCCCC[C@H](N)C(=O)NCCCCCNC(=O)[C@H](CC(N)=O)NC(=O)Cc1c[nH]c2ccccc12
target.desc: UniProtKB P19490
endpoint.label: inhibition
value: 81%
